tested on: aTm1 252-334 (Drosophila melanogaster); test: EMSA

{"INPUT_SEQUENCE": "UUUUUUUUUUUUUUUUUUUUUUUUU [oligo-(U25) RNA]", "Kd": "> 10 µM"}

Hello, the source for this data is paper PMC8247599, in case you need it.
